Could you please report measured folding stability dG for the items listed next?
B1: HEEH_KT_rd6_0790 (parent)
chain: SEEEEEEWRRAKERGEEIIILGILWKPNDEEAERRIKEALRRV

- Variants of: B1
- measurement_description: folding stability dG (cDNA display proteolysis); higher = more stable
- condition_details: PBS, room temperature
Answers are plain numbers, in kcal/mol.

1) D29K | 0.951

Report folding stability dG for every entry below.
1. L21H
2. E38S
3. K26Q
4. R14E

1: 1.88; 2: 1.67; 3: 1.64; 4: 1.68

Report folding stability dG for every entry below.
1. E17R
2. R14F
3. G22F
4. G22R
5. E4H

[1.7, 1.67, 2.59, 0.712, 2.41]
